# test: Stability in mouse plasma assessed as parent compound remaining measured after 2 hrs by LC-MS/MS analysis
# Type: ADME, cell-free
# experimental-conditions: read-out: Stabilty
Lab note - cut at 90% for remaining at 2 h: 1 if strictly below, -1 if not.

compound: CCOC(=O)[C@@H](Cc1cn(C)c2ccccc12)NC(=O)[C@@H](N)Cc1ccccc1.Cl
class-label: 1

Please check: remaining at 2 h for CC(C)OC(=O)[C@H](N)Cc1cn(C)c2ccccc12.Cl , strictly under 90% or not? 1

Please determine if Cl.Cn1cc(C[C@@H](NC(=O)[C@@H](N)CCCCN)C(=O)O)c2ccccc21 is below 90% in terms of remaining at 2 h. 1

Lab note: confirm whether the reported remaining at 2 h for this compound is below 90%, equality not counting. compound: Cl.Cn1cc(C[C@@H](N)C(=O)OCC2CCNCC2)c2ccccc21 1

Check if remaining at 2 h falls below 90% for Cl.Cn1cc(C[C@@H](N)C(=O)OCCC2CCOCC2)c2ccccc21 . 1

Please indicate whether the reported remaining at 2 h of Cl.Cn1cc(C[C@@H](NC(=O)[C@@H](N)Cc2ccccc2)C(=O)O)c2ccccc21 is strictly below 90%. 1

Please determine if Cl.Cn1cc(C[C@@H](N)C(=O)OCC(O)CO)c2ccccc21 (stereo not given in full) is below 90% in terms of remaining at 2 h. 1

API: query returns whether the compound falls strictly under 90% in remaining at 2 h. Query: Cl.Cn1cc(C[C@@H](NC(=O)[C@H](N)Cc2c[nH]c3ccccc23)C(=O)O)c2ccccc21 1

Regarding C[C@H](N)C(=O)N[C@H](Cc1cn(C)c2ccccc12)C(=O)O.Cl , kindly confirm whether its remaining at 2 h is beneath 90%. -1

Hi there! Is remaining at 2 h for CCOC(=O)N[C@H](Cc1cn(C)c2ccccc12)C(=O)O below 90%, do you know? -1

Consider Cn1cc(C[C@@H](NC(=O)OCC(C)(C)C)C(=O)O)c2ccccc21 . Does its remaining at 2 h lie strictly below 90%? -1

Does this compound meet the criterion remaining at 2 h < 90%? Cl.Cn1cc(C[C@@H](N)C(=O)N[C@H](Cc2cn(C)c3ccccc23)C(=O)O)c2ccccc21 1

Lab note: confirm whether the reported remaining at 2 h for this compound is below 90%, equality not counting. compound: CCOC(=O)[C@H](N)Cc1cn(C)c2ccccc12.Cl 1
